tested-on: glutathione S-transferase (GST)-fused full-length human Syk protein (Homo sapiens)
Construct: (GST)-fused full-length human Syk protein; GST (glutathione S-transferase); purchased Carna Biosciences
experimental-details: Syk enzyme assay
Format: biochemical
conditions-used: Syk enzyme assay, Test Example 1; read-out: IC50 of Syk-inhibitory activity
Method: A glutathione S-transferase (GST)-fused full-length human Syk protein (Carna Biosciences), which had been generated using a Baculovirus expression system, was used in the Syk enzyme assay. 15 μl of a reaction solution (1.2 ng Syk, 20 mM HEPES, 10 mM MgCl2, 50 mM NaCl, 2 mM DTT, 0.05% BSA, pH 7.0) containing a Syk protein and a predetermined concentration of a test compound was shaken for 2 minutes, and it was then left at rest at room temperature for 13 minutes. […]
pIC50: −log10 of the molar value.
reported-metric: pIC50

QUERY: Output measured pIC50 for this item: `CCC[C@@H](Nc1nc(Nc2cncc(F)c2)c(C(N)=O)cc1F)[C@H](C)N`
RESULT: 7.30 to 8.00

QUERY: Output measured pIC50 for this item: `NC(=O)c1cc(F)c(N[C@@H]2CCCC[C@@H]2N)nc1Nc1cncc(C(=O)Nc2ccccc2)c1`
RESULT: 7.30 to 8.00

QUERY: Output measured pIC50 for this item: COc1ccccc1-c1cc(Nc2nc(NC3CCCCC3N)c(F)cc2C(N)=O)ccn1 (stereo not drawn)
RESULT: 7.30 to 8.00

QUERY: Output measured pIC50 for this item: `CCC[C@@H](Nc1nc(Nc2ccnc(OCCOC)c2)c(C(N)=O)cc1F)[C@@H](N)CC`
RESULT: 7.30 to 8.00

QUERY: Output measured pIC50 for this item: NC(=O)c1cc(F)c(N[C@@H]2CCCC[C@@H]2N)nc1Nc1cncc(-c2ccc[nH]2)c1 (relative stereo)
RESULT: > 8.00

QUERY: Output measured pIC50 for this item: `COc1ccc2cc(Nc3nc(N[C@H](CC(C)C)[C@H](C)N)c(F)cc3C(N)=O)cnc2c1`
RESULT: > 8.00

QUERY: Output measured pIC50 for this item: NC(=O)c1cc(F)c(N[C@@H]2CCCC[C@@H]2N)nc1Nc1cncc(-c2cnn(Cc3ccccc3)c2)c1 (relative stereo)
RESULT: > 8.00

QUERY: Output measured pIC50 for this item: `C[C@H](N)[C@@H](CC1CC1)Nc1nc(Nc2ccc3cnn(CCF)c3c2)c(C(N)=O)cc1F`
RESULT: 7.30 to 8.00

QUERY: Output measured pIC50 for this item: CCOc1ccc2cc(Nc3nc(N[C@@H]4CCCC[C@@H]4N)c(F)cc3C(N)=O)cnc2c1 (relative stereo)
RESULT: > 8.00

QUERY: Output measured pIC50 for this item: `Cc1cnc2cc(Nc3nc(N[C@@H](CN)CC(C)C)c(F)cc3C(N)=O)ccc2n1`
RESULT: > 8.00

QUERY: Output measured pIC50 for this item: `Cc1cc(Nc2nc(N[C@H](C3CCC3)[C@H](C)N)c(F)cc2C(N)=O)cnc1C`
RESULT: > 8.00

QUERY: Output measured pIC50 for this item: COCCOc1nccc2cc(Nc3nc(N[C@@H]4CCCC[C@@H]4N)c(F)cc3C(N)=O)ccc12 (relative stereo)
RESULT: > 8.00

QUERY: Output measured pIC50 for this item: CCOCCOCCn1ncc2c(Nc3nc(NC4CCCCC4N)c(F)cc3C(N)=O)cccc21 (stereo not drawn)
RESULT: > 8.00

QUERY: Output measured pIC50 for this item: `NC(=O)c1cc(F)c(N[C@@H](C(N)=O)c2ccccc2)nc1Nc1ccc2ncccc2c1`
RESULT: 7.30 to 8.00

QUERY: Output measured pIC50 for this item: `C[C@H](N)[C@@H](CC1CC1)Nc1nc(Nc2cncc(-n3cccn3)c2)c(C(N)=O)cc1F`
RESULT: > 8.00
